Origin of the recorded values: patent US5843948A

Recorded IC50 by entry
Assay System: purified GP IIb/IIIa fibrinogen receptor from human blood platelets (Homo sapiens, UniProt P05106+P08514)
Construct: purified GP IIb/IIIa fibrinogen receptor from human blood platelets; from tissue; host or cells: human blood platelets
Sequence (P08514 32-887 limits assumed): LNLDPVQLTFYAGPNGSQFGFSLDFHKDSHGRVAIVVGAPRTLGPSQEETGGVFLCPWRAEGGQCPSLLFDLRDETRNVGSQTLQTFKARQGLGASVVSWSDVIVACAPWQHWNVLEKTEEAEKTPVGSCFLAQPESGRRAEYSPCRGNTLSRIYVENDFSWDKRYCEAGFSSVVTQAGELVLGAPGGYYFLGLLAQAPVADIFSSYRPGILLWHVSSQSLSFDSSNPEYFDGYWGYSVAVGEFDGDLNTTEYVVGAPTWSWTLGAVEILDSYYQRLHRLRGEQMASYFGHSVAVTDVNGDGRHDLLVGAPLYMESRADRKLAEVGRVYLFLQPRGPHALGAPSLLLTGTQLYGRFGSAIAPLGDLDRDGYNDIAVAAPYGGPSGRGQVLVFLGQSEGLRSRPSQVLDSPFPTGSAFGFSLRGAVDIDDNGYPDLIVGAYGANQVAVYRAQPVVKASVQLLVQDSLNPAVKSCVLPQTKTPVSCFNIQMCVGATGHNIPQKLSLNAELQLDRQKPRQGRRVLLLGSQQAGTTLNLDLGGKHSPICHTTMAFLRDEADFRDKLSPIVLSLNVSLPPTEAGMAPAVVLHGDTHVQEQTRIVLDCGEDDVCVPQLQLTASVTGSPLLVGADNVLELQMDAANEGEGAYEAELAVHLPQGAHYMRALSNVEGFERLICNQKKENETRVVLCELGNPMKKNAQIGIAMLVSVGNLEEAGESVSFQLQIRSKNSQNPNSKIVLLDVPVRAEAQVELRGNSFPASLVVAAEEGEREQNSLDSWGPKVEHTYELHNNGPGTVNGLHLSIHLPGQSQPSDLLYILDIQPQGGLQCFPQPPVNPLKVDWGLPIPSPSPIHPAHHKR
Sequence (P08514 891-1039 limits assumed): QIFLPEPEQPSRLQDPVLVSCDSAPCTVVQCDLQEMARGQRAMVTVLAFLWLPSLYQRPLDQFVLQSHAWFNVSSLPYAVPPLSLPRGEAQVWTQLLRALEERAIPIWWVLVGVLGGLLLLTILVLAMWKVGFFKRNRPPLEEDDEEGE
Sequence (P05106 27-788): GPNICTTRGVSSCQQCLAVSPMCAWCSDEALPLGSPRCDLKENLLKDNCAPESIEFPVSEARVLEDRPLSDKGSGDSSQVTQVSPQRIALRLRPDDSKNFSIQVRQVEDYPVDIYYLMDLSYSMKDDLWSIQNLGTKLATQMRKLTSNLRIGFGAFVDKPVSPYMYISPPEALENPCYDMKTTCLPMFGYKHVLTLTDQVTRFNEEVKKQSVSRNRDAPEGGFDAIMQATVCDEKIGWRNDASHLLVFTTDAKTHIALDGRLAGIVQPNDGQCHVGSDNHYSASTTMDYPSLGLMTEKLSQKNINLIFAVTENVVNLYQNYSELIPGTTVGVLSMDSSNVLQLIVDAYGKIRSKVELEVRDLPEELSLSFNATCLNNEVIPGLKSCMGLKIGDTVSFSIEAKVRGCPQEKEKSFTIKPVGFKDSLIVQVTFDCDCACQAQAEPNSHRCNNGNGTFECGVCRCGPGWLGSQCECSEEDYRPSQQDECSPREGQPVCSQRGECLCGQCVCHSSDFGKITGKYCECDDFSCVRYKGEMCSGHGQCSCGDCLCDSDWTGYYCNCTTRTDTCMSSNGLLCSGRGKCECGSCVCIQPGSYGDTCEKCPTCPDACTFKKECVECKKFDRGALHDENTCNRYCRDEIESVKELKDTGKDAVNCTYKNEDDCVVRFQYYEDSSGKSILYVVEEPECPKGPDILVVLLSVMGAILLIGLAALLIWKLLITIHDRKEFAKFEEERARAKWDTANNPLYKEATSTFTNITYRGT
Assay Method Text: Inhibition of fibrinogen binding to GP IIb/IIIa, solid phase enzyme immunoassay of the ELISA type (Kouns et al.)
Conditions Used: purified human plasma fibrinogen 20 μg/ml, 37° C., 2 hours, read-out: pIC50 (negative common logarithm of the IC50 for inhibition of the specific fibrinogen binding of GP IIb/IIIa) (converted)
Unit µM implied. Number only.

Example results:
N=C(N)c1ccc(N2CCN(c3ccc(CCC(=O)O)cc3)CC2)cc1    0.0282
N=C(N)c1ccc(N2CCN(c3ccc(OCC(=O)O)cc3)CC2)cc1    0.00158
N=C(N)c1ccc(N2CCN(c3ccc(CCC(=O)O)cc3)CC2)nc1    0.0302
COC(=O)COc1ccc(N2CCN(c3ccc(C(=N)N)cn3)CC2)cc1    0.0363

Alright, here's another compound for you.
Which IC50 is reported for this compound? N=C(N)c1ccc(N2CCN(c3ccc(OCC(=O)O)cc3)CC2)nc1
0.00155
